// endpoint Ki / system Neuromedin-K receptor (Homo sapiens)
One number for each entry, in µM.

Some solved entries appear below for comparison.
Ask: Name the recorded Ki for O=C(c1cccc(F)c1)N1CCn2c(nnc2-c2ccccn2)C1 .
Reply: 5.01

Ask: Name the recorded Ki for O=C(c1ccc(F)cc1)N1CCn2c(nnc2-c2ccccn2)C1 .
Reply: 4.5

Ask: Name the recorded Ki for O=C(c1ccc(-c2cccs2)cc1)N1CCn2c(nnc2-c2ccccn2)C1 .
Reply: 0.501

Ask: Name the recorded Ki for C[C@@H]1c2nnc(-c3csc(-c4ccc(F)cc4F)n3)n2CCN1C(=O)c1ccc(-c2cccs2)cc1 .
Reply: 0.002

Ask: Name the recorded Ki for Cc1ccc(-c2nnc3n2CCN(C(=O)c2ccc(F)cc2)C3)nc1 .
Reply: 1.58

Ask: Name the recorded Ki for Cc1ccc(-c2ccc(C(=O)N3CCn4c(nnc4-c4ccccn4)C3)cc2)o1 .
Reply: 15.8

Ask: Name the recorded Ki for C[C@@H]1c2nnc(-c3csc(C(F)(F)F)n3)n2CCN1C(=O)c1ccc(-c2cccs2)cc1 .
Reply: 0.0794

New cases:
Ask: Name the recorded Ki for Cc1noc(-c2nnc3n2CCN(C(=O)c2ccc(-c4cccs4)cc2)[C@@H]3C)n1 .
Reply: 0.0251

###

Target chain: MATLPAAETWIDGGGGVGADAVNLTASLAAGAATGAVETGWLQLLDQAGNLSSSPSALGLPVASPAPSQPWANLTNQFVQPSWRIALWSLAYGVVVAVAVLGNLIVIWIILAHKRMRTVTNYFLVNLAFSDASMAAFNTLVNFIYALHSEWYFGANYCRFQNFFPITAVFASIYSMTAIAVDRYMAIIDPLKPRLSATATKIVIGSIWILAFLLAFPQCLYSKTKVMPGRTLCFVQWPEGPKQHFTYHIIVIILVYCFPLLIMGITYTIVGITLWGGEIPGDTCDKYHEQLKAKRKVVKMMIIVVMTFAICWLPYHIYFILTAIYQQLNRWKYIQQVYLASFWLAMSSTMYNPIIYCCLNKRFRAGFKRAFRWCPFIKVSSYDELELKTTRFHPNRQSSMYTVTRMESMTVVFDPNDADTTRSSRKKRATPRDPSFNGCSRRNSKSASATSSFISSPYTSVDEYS
QUANTITY MEASURED: pIC50
One number for each entry, as −log10 of the molar value.

Some solved entries appear below for comparison.
Ask: Name the recorded pIC50 for Cc1ccc(-c2ccc(C(=O)N3CCn4c(nnc4-c4ccccn4)C3)cc2)o1 .
Reply: 5.00

Ask: Name the recorded pIC50 for Cc1cccc(-c2nnc3n2CCN(C(=O)c2ccc(-c4cccs4)cc2)[C@@H]3C)n1 .
Reply: 8.00

I have 2 compounds here; please give me pIC50 for each one.
1. Cc1noc(-c2nnc3n2CCN(C(=O)c2ccc(-c4cccs4)cc2)[C@@H]3C)n1
2. N#CC(c1ccccn1)c1ccnc(N2CCN(C(=O)c3ccc(F)cc3)CC2)n1 (stereo not given)

Reply:
1: 7.60; 2: 6.96

###

MEASUREMENT NOTES: Solubility of the compound in PBS buffer at pH 7.4 by shake-flask method
Type: physicochemical
QUANTITY MEASURED: solubility thermodynamic (µM)
Answers are plain numbers, in µM.

Some solved entries appear below for comparison.
Ask: Name the recorded solubility thermodynamic for O=C(c1ccc(-c2cccs2)cc1)N1CCn2c(nnc2-c2ccccn2)C1 .
Reply: 12

Ask: Name the recorded solubility thermodynamic for COc1ccc(-c2ccc(C(=O)N3CCn4c(nnc4-c4ccccn4)C3)cc2)cc1 .
Reply: 6.4

Next compound, please.
Ask: Name the recorded solubility thermodynamic for O=C(c1ccc(-c2ccccc2)cc1)N1CCn2c(nnc2-c2ccccn2)C1 .
Reply: 28

###

MEASUREMENT NOTES: Apparent permeability across basolateral to apical side in human Caco2 cells in presence of 0.1% bovine serum albumin
CONDITION PARAMETERS: Caco-2
QUANTITY MEASURED: Papp B→A (×10⁻⁶ cm/s)
One number for each entry, in ×10⁻⁶ cm/s.

Some solved entries appear below for comparison.
Ask: Name the recorded Papp B→A for Cc1nc(-c2nnc3n2CCN(C(=O)c2ccc(-c4cccs4)cc2)[C@@H]3C)cs1 .
Reply: 52.9

Ask: Name the recorded Papp B→A for CC(C)c1nc(-c2nnc3n2CCN(C(=O)c2ccc(-c4cccs4)cc2)[C@@H]3C)co1 .
Reply: 43.8

Ask: Name the recorded Papp B→A for Cc1noc(-c2nnc3n2CCN(C(=O)c2ccc(-c4cccs4)cc2)[C@@H]3C)n1 .
Reply: 60.4

Next compound, please.
Ask: Name the recorded Papp B→A for CC[C@H](NC(=O)c1c(O)c(-c2ccccc2)nc2ccccc12)c1ccccc1 [TALNETANT] .
Reply: 98.5

###

MEASUREMENT NOTES: Fraction unbound in rat brain at 5 uM after 4 hrs by equilibrium dialysis method
Format: ADME, tissue-based
QUANTITY MEASURED: fraction unbound at 4 h, 5 µM
Give bare numbers.

Ask: Name the recorded fraction unbound at 4 h, 5 µM for CC[C@H](NC(=O)c1c(O)c(-c2ccccc2)nc2ccccc12)c1ccccc1 .
Reply: 0.01

Ask: Name the recorded fraction unbound at 4 h, 5 µM for CC(C)c1nc(-c2nnc3n2CCN(C(=O)c2ccc(-c4cccs4)cc2)[C@@H]3C)co1 .
Reply: 0.016

I have 4 compounds here; please give me fraction unbound at 4 h, 5 µM for each one.
1. C[C@@H]1c2nnc(-c3csc(-c4ccc(F)cc4F)n3)n2CCN1C(=O)c1ccc(-c2cccs2)cc1
2. Cc1nc(-c2nnc3n2CCN(C(=O)c2ccc(-c4cccs4)cc2)[C@@H]3C)cs1
3. Cc1noc(-c2nnc3n2CCN(C(=O)c2ccc(-c4cccs4)cc2)[C@@H]3C)n1
4. CC(=O)N(C)C1(c2ccccc2)CCN(CCC[C@]2(c3ccc(Cl)c(Cl)c3)CCCN(C(=O)c3ccccc3)C2)CC1

Reply:
[0.001, 0.028, 0.084, 0.001]

###

MEASUREMENT NOTES: Tmax in castrated cynomolgus monkey at 5 mg/kg, po by LC-MS/MS analysis
Assay type: ADME, organism-based, Macaca fascicularis
Parameters: dose 5 mg/kg, route oral
CONDITION PARAMETERS: male, in vivo
QUANTITY MEASURED: Tmax (h)
Numbers only, in h.

Ask: Name the recorded Tmax for Cc1nc(-c2nnc3n2CCN(C(=O)c2ccc(-c4cccs4)cc2)[C@@H]3C)cs1 .
Reply: 1.5

###

STUDY SYSTEM: Cytochrome P450 2C9 (Homo sapiens)
Sequence (P11712 whole entry): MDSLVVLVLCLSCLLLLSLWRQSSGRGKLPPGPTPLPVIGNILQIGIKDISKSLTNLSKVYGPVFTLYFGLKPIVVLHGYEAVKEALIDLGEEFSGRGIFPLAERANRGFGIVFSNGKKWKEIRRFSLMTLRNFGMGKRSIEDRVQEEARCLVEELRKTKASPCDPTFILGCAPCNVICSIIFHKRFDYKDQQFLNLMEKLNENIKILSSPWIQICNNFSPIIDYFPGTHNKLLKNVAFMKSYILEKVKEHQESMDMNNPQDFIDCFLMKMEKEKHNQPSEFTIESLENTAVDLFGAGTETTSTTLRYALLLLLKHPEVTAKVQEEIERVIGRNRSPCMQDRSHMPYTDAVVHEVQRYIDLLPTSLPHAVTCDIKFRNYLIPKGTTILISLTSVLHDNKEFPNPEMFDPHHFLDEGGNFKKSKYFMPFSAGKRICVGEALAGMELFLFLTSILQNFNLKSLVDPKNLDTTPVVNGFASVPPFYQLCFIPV
MEASUREMENT NOTES: Inhibition of CYP2C9 (unknown origin) by luciferase reporter assay in presence of NADPH regeneration system
For each of the compounds below, state its IC50.
One number for each entry, in µM.

Some solved entries appear below for comparison.
Ask: Name the recorded IC50 for Cc1cccc(-c2nnc3n2CCN(C(=O)c2ccc(-c4cccs4)cc2)[C@@H]3C)n1 .
Reply: 18

Ask: Name the recorded IC50 for C[C@@H]1c2nnc(-c3csc(C(F)(F)F)n3)n2CCN1C(=O)c1ccc(-c2cccs2)cc1 .
Reply: 5

I have 4 compounds here; please give me IC50 for each one.
1. CC(C)c1nc(-c2nnc3n2CCN(C(=O)c2ccc(-c4cccs4)cc2)[C@@H]3C)co1
2. Cc1noc(-c2nnc3n2CCN(C(=O)c2ccc(-c4cccs4)cc2)[C@@H]3C)n1
3. Cc1nc(-c2nnc3n2CCN(C(=O)c2ccc(F)cc2)[C@@H]3C)cs1
4. Cc1csc(-c2nnc3n2CCN(C(=O)c2ccc(-c4cccs4)cc2)[C@@H]3C)n1

Reply:
14
40
56
8

###

MEASUREMENT NOTES: Total systemic clearance in Sprague-Dawley rat at 1 mg/kg, iv by LC-MS/MS analysis
Assay type: ADME, organism-based
Parameters: dose 1 mg/kg, route intravenous
CONDITION PARAMETERS: in vivo
The threshold is 9 mL/min/kg. Values of clearance beneath it are tagged criterion met; values meeting or exceeding it are tagged criterion not met.

Example cases with answers are listed next.
Ask: clearance under 9 mL/min/kg? Item: CC[C@H](NC(=O)c1c(O)c(-c2ccccc2)nc2ccccc12)c1ccccc1
Reply: criterion met

Ask: clearance under 9 mL/min/kg? Item: Cc1noc(-c2nnc3n2CCN(C(=O)c2ccc(-c4cccs4)cc2)[C@@H]3C)n1
Reply: criterion not met

Ask: clearance under 9 mL/min/kg? Item: Cc1nc(-c2nnc3n2CCN(C(=O)c2ccc(-c4cccs4)cc2)[C@@H]3C)cs1
Reply: criterion met

Now let's try a different one.
Ask: clearance under 9 mL/min/kg? Item: CC(C)c1nc(-c2nnc3n2CCN(C(=O)c2ccc(-c4cccs4)cc2)[C@@H]3C)co1
Reply: criterion met

###

MEASUREMENT NOTES: Solubility of the compound in PBS buffer at pH 7.4 by shake-flask method
Format: physicochemical
Respond with condition met for solubility thermodynamic values of 20 µM and above, condition not met for values below.

Example cases with answers are listed next.
Ask: Is it the case that O=C(c1ccccc1F)N1CCn2c(nnc2-c2ccccn2)C1 has solubility thermodynamic reaching or exceeding 20 µM?
Reply: condition met

Ask: Is it the case that C[C@@H]1c2nnc(-c3csc(-c4ccccc4)n3)n2CCN1C(=O)c1ccc(F)cc1 has solubility thermodynamic reaching or exceeding 20 µM?
Reply: condition met

Ask: Is it the case that CC(C)c1nc(-c2nnc3n2CCN(C(=O)c2ccc(-c4cccs4)cc2)[C@@H]3C)cs1 has solubility thermodynamic reaching or exceeding 20 µM?
Reply: condition met

Ask: Is it the case that Cc1ccc(-c2ccc(C(=O)N3CCn4c(nnc4-c4ccccn4)C3)cc2)o1 has solubility thermodynamic reaching or exceeding 20 µM?
Reply: condition met

Ask: Is it the case that O=C(c1ccc(Cc2ccccc2)cc1)N1CCn2c(nnc2-c2ccccn2)C1 has solubility thermodynamic reaching or exceeding 20 µM?
Reply: condition met

New cases:
Ask: Is it the case that COc1ccc(C(=O)N2CCn3c(nnc3-c3ccccn3)C2)cc1 has solubility thermodynamic reaching or exceeding 20 µM?
Reply: condition met

Ask: Is it the case that Cc1ccnc(-c2nnc3n2CCN(C(=O)c2ccc(F)cc2)C3)c1 has solubility thermodynamic reaching or exceeding 20 µM?
Reply: condition met

Ask: Is it the case that O=C(c1cc(-c2ccc(Cl)cc2)n[nH]1)N1CCn2c(nnc2-c2ccccn2)C1 has solubility thermodynamic reaching or exceeding 20 µM?
Reply: condition not met

Ask: Is it the case that O=C(c1ccc(F)cc1)N1CCn2c(nnc2-c2cccc(C(F)(F)F)n2)C1 has solubility thermodynamic reaching or exceeding 20 µM?
Reply: condition met

Ask: Is it the case that O=C(c1ccc(-c2ccc(Cl)cc2)cc1)N1CCn2c(nnc2-c2ccccn2)C1 has solubility thermodynamic reaching or exceeding 20 µM?
Reply: condition not met
